The values you see were collected from patent US12466813B2.

Molecular target: RING1B-BMI1 (Homo sapiens, UniProt Q99496)
Test: KD classes of Table A (direct binding to Ring1B-Bmi1)
Settings: class given in Table A
assay.metric: Kd

{"compound": "CCc1c(C(=O)O)[nH]c(-c2cccc3[nH]ccc23)c1-c1ccccc1 [compound 113]", "readout.value": "> 100 µM"}
{"compound": "CCc1c(-c2cccc3[nH]ccc23)[nH]c(C(=O)O)c1-c1ccccc1C [compound 83]", "readout.value": "20 to 50 µM"}
{"compound": "CC(C)c1c(-c2cc(F)cc3[nH]ccc23)[nH]c(C(=O)O)c1-c1cccc2[nH]c(C(=O)NCc3nccs3)cc12 [compound 262]", "readout.value": "< 20 µM"}
{"compound": "CC(C)c1c(-c2cc(O)cc3[nH]ccc23)[nH]c(C(=O)O)c1-c1c(Cl)ccc2[nH]ccc12 [compound 12]", "readout.value": "< 20 µM"}
{"compound": "CCc1c(-c2cccc3[nH]ccc23)[nH]c(C(=O)O)c1-c1c(Cl)cc(OC)c2[nH]ccc12 [compound 18]", "readout.value": "< 20 µM"}
{"compound": "CC(C)c1c(-c2cc(F)cc3[nH]ccc23)[nH]c(C(=O)O)c1-c1cccc2[nH]c3ccccc3c12 [compound 210]", "readout.value": "< 20 µM"}
{"compound": "COc1cc(-c2c(C(=O)O)[nH]c(-c3cc(F)cc4[nH]ccc34)c2C(C)C)c2ccn(CCNC(=O)Cc3cscn3)c2c1 [compound 178]", "readout.value": "< 20 µM"}

* * *

Biological target: RING1B-BMI1 (Homo sapiens, UniProt Q99496)
Sequence (Q99496 1-336): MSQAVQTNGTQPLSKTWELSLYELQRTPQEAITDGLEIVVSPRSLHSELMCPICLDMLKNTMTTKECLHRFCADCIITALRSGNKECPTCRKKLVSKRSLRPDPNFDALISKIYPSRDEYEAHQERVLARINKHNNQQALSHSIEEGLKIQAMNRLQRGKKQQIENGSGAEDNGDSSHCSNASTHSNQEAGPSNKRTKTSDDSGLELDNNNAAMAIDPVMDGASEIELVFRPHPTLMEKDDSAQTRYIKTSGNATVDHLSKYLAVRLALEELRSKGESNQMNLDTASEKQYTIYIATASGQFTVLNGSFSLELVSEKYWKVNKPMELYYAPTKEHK
Sequence (P35226 1-326 partner): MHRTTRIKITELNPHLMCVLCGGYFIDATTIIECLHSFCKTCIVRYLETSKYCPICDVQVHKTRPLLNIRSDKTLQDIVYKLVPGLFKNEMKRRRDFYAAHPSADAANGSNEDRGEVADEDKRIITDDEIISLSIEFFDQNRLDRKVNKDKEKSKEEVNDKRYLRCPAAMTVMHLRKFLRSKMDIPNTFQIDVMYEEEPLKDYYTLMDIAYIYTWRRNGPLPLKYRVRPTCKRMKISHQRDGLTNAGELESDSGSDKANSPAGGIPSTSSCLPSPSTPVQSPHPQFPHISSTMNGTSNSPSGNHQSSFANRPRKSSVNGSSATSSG
Test: KD classes of Table A (direct binding to Ring1B-Bmi1)
Settings: class given in Table A
assay.metric: Kd

{"compound": "Cc1c[nH]c2nccc(-c3c(C(=O)O)[nH]c(-c4cc(F)cc5[nH]ccc45)c3C(C)C)c12 [compound 208]", "readout.value": "< 20 µM"}
{"compound": "CC(C)c1c(-c2cc(F)cc3[nH]ccc23)[nH]c(C(=O)O)c1-c1cccc2c1ccn2CCS(C)(=O)=O [compound 267]", "readout.value": "< 20 µM"}
{"compound": "O=C(O)c1ccc(-c2ccccc2)[nH]1 [compound 144]", "readout.value": "> 100 µM"}
{"compound": "CCc1cc(-c2[nH]c(C(=O)O)c(-c3c(Cl)ccc4[nH]ccc34)c2C(C)C)c2cc[nH]c2c1 [compound 9]", "readout.value": "< 20 µM"}
{"compound": "COc1cc(-c2c(C(=O)O)[nH]c(-c3cc(F)cc4[nH]ccc34)c2C(C)C)c2ccn(CC(N)=O)c2c1 [compound 175]", "readout.value": "< 20 µM"}
{"compound": "CCc1c(-c2cccc3[nH]ccc23)[nH]c(C(=O)O)c1-c1ccc(O)cc1Cl [compound 92]", "readout.value": "50 to 100 µM"}
{"compound": "CC(C)c1c(-c2cc(F)cc3[nH]ccc23)[nH]c(CCC(=O)O)c1-c1cccc2[nH]ccc12 [compound 216]", "readout.value": "< 20 µM"}
{"compound": "CCc1c(-c2cccc3[nH]ccc23)[nH]c(C(=O)O)c1-c1cccc2c1ccn2CC [compound 21]", "readout.value": "< 20 µM"}
